tested-on: T1, cyno PD-1 (soluble analyte in SPR) (cyno)
T1 construct: also called cynomolgus PD-1
test-method-notes: SPR (ProteOn XPR36), mAb captured on anti-human IgG Fc, cyno PD-1 as analyte, 25 C
property: koff (s⁻¹)
Write it as a number; the unit s⁻¹ goes unstated.

Use these answered entries as a reference point.
• PD1B1087 (antibody, human IgG1, kappa, V domains shown, also called VH PD1H587; VL PD1L469) VH: QVQLVQSGSELKKPGASVKVSCKASGYTFTDYSMHWVRQAPGQGLEWMGWINIETGWPTYAQGFTGRFVFSLDTSVSTAYLQISSLKAEDTAVYFCARDYYGTYFYAMDYWGQGTLVTVSS VL: EIVLTQSPATLSLSPGERATLSCTASSSVSSSYLHWYQQKPGLAPRLLIYSTSNLASGIPDRFSGSGSGTDYTLTISRLEPEDFAVYYCHQYHRSPLTFGQGTKLEIKR = 0.00247
• PD1B1085 (antibody, human IgG1, kappa, V domains shown, also called VH PD1H585; VL PD1L469) VH: QVQLVQSGSELKKPGASVKVSCKASGYTFTDYSMHWVRQAPGQGLEWMGWINIETGYPTYAQGFTGRFVFSLDTSVSTAYLQISSLKAEDTAVYFCARDYYGTYFYAMDYWGQGTLVTVSS VL: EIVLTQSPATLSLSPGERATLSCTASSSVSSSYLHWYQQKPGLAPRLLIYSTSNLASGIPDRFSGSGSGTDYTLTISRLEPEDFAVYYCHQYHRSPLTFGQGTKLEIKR = 0.00129
• PD1B1091 (antibody, human IgG1, kappa, V domains shown, also called VH PD1H586; VL PD1L651) VH: QVQLVQSGSELKKPGASVKVSCKASGYTFTDYSMHWVRQAPGQGLEWMGWINIETGHPTYAQGFTGRFVFSLDTSVSTAYLQISSLKAEDTAVYFCARDYYGTYFYAMDYWGQGTLVTVSS VL: EIVLTQSPATLSLSPGERATLSCTASSSFSSSYLHWYQQKPGLAPRLLIYSTSNLASGIPDRFSGSGSGTDYTLTISRLEPEDFAVYYCHQYHRSPLTFGQGTKLEIKR = 0.000924
• PD1B1093 (antibody, human IgG1, kappa, V domains shown, also called VH PD1H585; VL PD1L652) VH: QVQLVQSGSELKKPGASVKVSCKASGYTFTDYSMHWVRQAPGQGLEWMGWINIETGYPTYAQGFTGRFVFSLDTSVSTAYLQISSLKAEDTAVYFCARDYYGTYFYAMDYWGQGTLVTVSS VL: EIVLTQSPATLSLSPGERATLSCTASSSVPSSYLHWYQQKPGLAPRLLIYSTSNLASGIPDRFSGSGSGTDYTLTISRLEPEDFAVYYCHQYHRSPLTFGQGTKLEIKR = 0.000368

Now, please, on to the next binder.
Name the recorded koff of the item PD1B1089 (antibody, human IgG1, kappa, V domains shown, also called VH PD1H405; VL PD1L652) VH: QVQLVQSGSELKKPGASVKVSCKASGYTFTDYSMHWVRQAPGQGLEWMGWINIETGEPTYAQGFTGRFVFSLDTSVSTAYLQISSLKAEDTAVYFCARDYYGTYFYAMDYWGQGTLVTVSS VL: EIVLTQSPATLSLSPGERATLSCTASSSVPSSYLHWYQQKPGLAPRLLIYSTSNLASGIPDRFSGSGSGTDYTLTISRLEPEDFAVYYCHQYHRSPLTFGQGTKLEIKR in your answer.
0.00839
